# System: UACC-257 melanoma
# assay_explanation: NCI tumour cell line growth inhibition, 48 h
recorded_metric: TGI

Observe how each entry below is paired with its result.
# compound, TGI
rows = [
    ("O=C1C=CC(=O)c2c1c1c(c3c2C2c4ccccc4C3c3ccccc32)C2c3ccccc3C1c1ccccc12", "3.58 µM"),
    ("COC1(OC)C[C@H](C)[C@@]23O[C@]24C2=CC(=O)C=CC2=N[C@H]3C#C/C=C\\C#C[C@]14O", "5.16 µM"),
    ("CN(C)c1ccc2nc3ccc(=N)cc-3sc2c1", "9.71 µM"),
    ("COc1nc(-c2cn(S(=O)(=O)c3ccc(C)cc3)c3ccc(Br)cc23)cc(C(F)(F)F)c1C#N", "> 100 µM"),
    ("CCOC(=O)N1C=NC23C(c4ccccc4)C(c4ccccc4)C12C(=O)N(C)C(=O)N3C (stereo not drawn)", "> 100 µM"),
    ("O=C1C=Cc2cscc21", "> 100 µM"),
]

Can you share its TGI? I mean this compound: C[C@]12CC(c3ccccc3O1)C(C(N)=O)C(=O)N2 (stereo partly drawn) > 100 µM

Cool, now C[C@]12CCc3nonc3C1CC[C@@H]1C2CC[C@]2(C)C(=O)CCC12 (stereo partly drawn) > 10 µM
